# assayMethodText: chemical genetic growth profiling, strain panel (AID 1159580);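 also: tested at 20 µM; growth read once vehicle control cultures reached saturation at 30 °C; 1 = growth at the plate median or of vehicle wells; lower values mean less growth of the strain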
# particulars: S. cerevisiae deletion strains, growth OD, locus YFR010W, strain ubp6
Screen size: about 5,500 compounds; about 2,000 (36%) were called active. About 18% were inconclusive and are not listed. Rule as the data show it: active = normalized growth mostly below about 0.91 (no sharp cut-off); inconclusive = no clear call, values can overlap the other calls; inactive = mostly above about 0.92. Some of the results follow.
Select the correct class. Options are active, inactive and nothing else.

## Task Record request — test call for `O=NN(CCCl)C(=O)NCCCl`
## Result active

## Task # lookup: test call for `CC(C)c1nc(N(C)S(C)(=O)=O)nc(-c2ccc(F)cc2)c1/C=C/[C@@H](O)C[C@@H](O)CC(=O)O`
## Result inactive

## Task GET /call?item= CC(=O)O[C@@H]1CC2C(C)(C)C(=O)C3OC3[C@]2(C)C2CC[C@@]3(C)[C@H](c4ccoc4)OC(=O)C4OC43[C@@]21C (stereo partly drawn) returns the recorded outcome of this test.
## Result inactive

## Task Which outcome did this test record for the compound CCCCC(=O)O[C@]1(C(=O)CO)CCC2C3CCC4=CC(=O)CC[C@]4(C)C3[C@@H](O)C[C@@]21C (stereo partly drawn) ?
## Result inactive

## Task Kindly provide the recorded test outcome for the following compound: COC(=O)[C@@H]1OC(=O)C2OC23[C@@]1(C)CCC1[C@]2(C)C(C[C@@H](O)[C@]13C)C(C)(C)[C@H](OC(C)=O)C[C@@H]2OC(C)=O (stereo partly drawn)
## Result inactive

## Task Give the logged outcome of this assay for the following compound: Clc1ccc(C(c2ccccc2Cl)C(Cl)Cl)cc1 (stereo not drawn)
## Result inactive

## Task Please share the test call associated with `COP(=S)(OC)Oc1ccc([N+](=O)[O-])cc1` .
## Result inactive

## Task Returns: the outcome recorded for CC1(C)C(=O)[C@@H]2O[C@@H]2[C@@]2(C)C1C[C@@H](O)[C@]1(C)C2CC[C@@]2(C)[C@H](c3ccoc3)OC(=O)C3OC321 (stereo partly drawn) in this assay.
## Result inactive

----------
# assayMethodText: chemical genetic growth profiling, strain panel (AID 1159580)
# particulars: S. cerevisiae deletion strains, growth OD, locus YPR119W, strain clb2, stronger effect = lower value
Hit rate of the full screen: of about 5,500 compounds, about 2,000 (36%) were called active. Not shown: some 18% with an inconclusive outcome. This is one part of the list. Where a SMILES comes first, the peptide text is derived from it.
I'd appreciate it if you could supply normalized growth values for the items below.
Lab note: record just the number, no unit beside it.

## Task For the compound CC(=O)C1CC[C@H]2C3CC[C@H]4C[C@H](O)CC[C@]4(C)C3CC[C@]12C (stereo not given in full) , give its reported normalized growth.
## Result 0.997

## Task Respond only with normalized growth recorded for CC(=O)N[C@@H](CC(=O)O)C(=O)N[C@@H](CCC(=O)O)C(=O)O (Ac-Asp-Glu-OH)
## Result 0.99

## Task Given the compound O=c1[nH]c(=O)n(C2C[C@H](O)[C@@H](CO)O2)cc1C(F)(F)F (stereo not given in full) , write its reported normalized growth.
## Result 0.987

## Task Indicate its recorded normalized growth; the compound in question is C[C@]12CCC3C(CC[C@H]4C[C@H](O)CC[C@]34C)C1CC[C@@H]2O (stereo not given in full)
## Result 0.992

## Task Give normalized growth for the following compound: Cc1cccc(C)c1NC(=O)C1CCCCN1C (stereo not given)
## Result 1.02

## Task Give reported normalized growth value for CC(=O)OC1CC(O)C(C)(C)C2CC(=O)C3(C)C(CCC4(C)C(c5ccoc5)OC(=O)C5OC543)C12C (stereo not given)
## Result 0.992

## Task Please report normalized growth for the following compound: C[C@]12CCC3C(CC[C@H]4C[C@@H](O)CC[C@]34C)C1CC[C@@H]2O (stereo not given in full)
## Result 1.04

## Task Give the measured normalized growth for `O=c1oc2ccccc2cc1O`
## Result 1.01

## Task Fill in reported normalized growth for this entry: `OC[C@H]1O[C@@H](n2cnc3c(NCc4ccco4)ncnc32)[C@H](O)[C@@H]1O`
## Result 1

## Task Fill in reported normalized growth for this entry: CC(=O)OCC(=O)[C@@]1(O)CCC2C3CCC4=CC(=O)C=CC4(C)C3[C@@H](O)C[C@@]21C (stereo not given in full)
## Result 1.01

----------
# assayMethodText: chemical genetic growth profiling, strain panel (AID 1159580)
# particulars: S. cerevisiae deletion strains, growth OD, locus YOR080W, strain dia2
The campaign covered roughly 5,500 compounds. About 2,000 (36%) were called active. Not shown: some 18% with an inconclusive outcome. Rule as the data show it: active = normalized growth mostly below about 0.91 (no sharp cut-off); inconclusive = no clear call, values can overlap the other calls; inactive = mostly above about 0.92. The list shows a part of the results.
The reply should name one outcome from active, inactive

## Task In this assay, the call recorded for `COc1c(C)c2c(c(O)c1C/C=C(\C)CCC(=O)O)C(=O)OC2` was what?
## Result active

## Task Fill in: this test's call for `Cc1cc(CC(=O)O)n(C)c1C(=O)c1ccc(Cl)cc1` is ___
## Result inactive

## Task Test call for this compound, please: `Oc1c(Cl)cc(Cl)c(Cl)c1Cc1c(O)c(Cl)cc(Cl)c1Cl`
## Result active

----------
# assayMethodText: chemical genetic growth profiling, strain panel (AID 1159580);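 also: tested at 20 µM; growth read once vehicle control cultures reached saturation at 30 °C; 1 = growth at the plate median or of vehicle wells; lower values mean less growth of the strain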
# particulars: S. cerevisiae deletion strains, growth OD, locus YCL029C, strain bik1, stronger effect = lower value
About 2,000 (36%) of roughly 5,500 compounds were called active. Inconclusive results (about 18%) are left out. This is one part of the list. Where a SMILES comes first, the peptide text is derived from it.
readoutLabel: normalized growth
Please give only the number in your answer, with no unit.

## Task Name the recorded normalized growth of the compound listed here: `CC(=O)N[C@@H](CCC(=O)O)C(=O)O`
## Result 1.02

## Task Identify normalized growth associated with the compound Clc1ccc(C(c2ccccc2Cl)C(Cl)Cl)cc1 (centres undefined)
## Result 0.986

## Task Identify measured normalized growth corresponding to `Cc1onc(-c2ccccc2)c1-c1ccc(S(N)(=O)=O)cc1`
## Result 0.995

## Task Given CC(=O)O[C@@H]1CC2C(C)(C)[C@H](O)CC[C@]2(C)C2CC[C@@]3(C)[C@H](c4ccoc4)OC(=O)[C@H]4O[C@]43[C@@]21C (some centres undefined) , respond with its normalized growth.
## Result 0.997

## Task Please give measured normalized growth of the following entry: `c1ccc2c(CC3=NCCN3)cccc2c1`
## Result 1.03

## Task Tell me measured normalized growth for CC(=O)O[C@@H]1CC2C(C)(C)[C@@H](O)CC[C@]2(C)C2CC[C@@]3(C)[C@H](c4ccoc4)OC(=O)[C@H]4O[C@]43[C@@]21C (some centres undefined) please.
## Result 0.997

## Task Identify the reported normalized growth for the following entry. `CCCn1c(=O)c2[nH]c(C3CCCC3)nc2n(CCC)c1=O`
## Result 0.959

## Task Tell me its normalized growth given CC(=O)O[C@@H]1CC2C(C)(C)C(=O)C3OC3[C@]2(C)C2CC[C@@]3(C)[C@H](c4ccoc4)OC(=O)C4OC43[C@@]21C (some centres undefined) as the entry.
## Result 1

## Task Write down normalized growth measured for item CC(=O)N[C@@H](CC(=O)O)C(=O)N[C@@H](CCC(=O)O)C(=O)O (Ac-Asp-Glu-OH)
## Result 0.989

----------
# assayMethodText: chemical genetic growth profiling, strain panel (AID 1159580);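 also: tested at 20 µM; growth read once vehicle control cultures reached saturation at 30 °C; 1 = growth at the plate median or of vehicle wells; lower values mean less growth of the strain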
# particulars: S. cerevisiae deletion strains, growth OD, locus YNL271C, strain bni1, stronger effect = lower value
Out of some 5,500 compounds screened, about 2,000 (36%) were called active. Another 18% or so got no clear call; they are omitted. The list shows a part of the results.
readoutLabel: normalized growth
Simply state the number, no unit and no words.

## Task Give the reported normalized growth for this compound. `NC(N)=NCCN1CCCCCCC1`
## Result 1.02

## Task Determine from records and report normalized growth for CCC(C)C(=O)c1c(O)c(C)c2oc3c(C)c(O)c(C(=O)C(C)CC)c(O)c3c2c1O (centres undefined)
## Result 0.987

## Task Using the record for `NC(N)=NCCCCN=C(N)N` , state its measured normalized growth.
## Result 0.994

## Task Retrieve normalized growth measured for Clc1ccc(C(c2ccccc2Cl)C(Cl)Cl)cc1 (centres undefined) and print it.
## Result 0.987

----------
# assayMethodText: chemical genetic growth profiling, strain panel (AID 1159580);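 also: tested at 20 µM; growth read once vehicle control cultures reached saturation at 30 °C; 1 = growth at the plate median or of vehicle wells; lower values mean less growth of the strain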
# particulars: S. cerevisiae deletion strains, growth OD, locus YLR370C, strain arc18, stronger effect = lower value
Out of some 5,500 compounds screened, about 2,000 (36%) were called active. Not shown: some 18% with an inconclusive outcome. The list shows a part of the results.
readoutLabel: normalized growth
Hey, just send me the number, nothing else.

## Task Give me measured normalized growth, please, for this molecule: COC(=O)[C@@H]1OC(=O)C2OC23[C@@]1(C)CCC1[C@]2(C)C(C[C@@H](O)[C@]13C)C(C)(C)[C@H](OC(C)=O)C[C@@H]2OC(C)=O (some centres not stated)
## Result 1.01

## Task Given O=C(O)C(O)C(O)C(=O)O (configuration not stated) , respond with its normalized growth.
## Result 1

## Task Specify reported normalized growth for the molecule shown: CC(=O)Oc1ccc2c(c1)CCC1C2CC[C@]2(C)C(=O)CCC12 (some centres not stated)
## Result 0.975

## Task Respond only with normalized growth recorded for C[C@]12CCC3c4ccc(OC(=O)c5ccccc5)cc4CCC3C1CCC2=O (some centres not stated)
## Result 0.99

## Task Give normalized growth for the following molecule: `NC(N)=NCCN1CCCCCCC1`
## Result 1.03

## Task Provide one value: measured normalized growth of `CC(C)(S)[C@@H](N)C(=O)O`
## Result 1

## Task Query normalized growth for NCC[C@@H](O)C(=O)N[C@@H]1C[C@H](N)[C@@H](O[C@H]2O[C@H](CN)[C@@H](O)[C@H](O)[C@H]2O)[C@H](O)[C@H]1O[C@H]1O[C@H](CO)[C@@H](O)[C@H](N)C1O (some centres not stated)
## Result 1.03

## Task Fill in normalized growth for record `O=C(O)[C@@H](S)[C@@H](S)C(=O)O`
## Result 0.81

## Task Using known records, supply normalized growth for NC(C(=O)O)C(O)C(=O)O (configuration not stated)
## Result 0.988

## Task Indicate its recorded normalized growth; the molecule in question is `COP(=S)(OC)Oc1ccc([N+](=O)[O-])cc1`
## Result 0.991

## Task Read the entry `NC(N)=NCCCCN=C(N)N` and write its reported normalized growth.
## Result 0.991

## Task Fill in reported normalized growth for this entry: C[C@]12CCC3c4ccc(O)cc4CCC3C1CCC2=O (some centres not stated)
## Result 1.02
